Cited source: the supplement of paper PMC7125110

B1: glmS ribozyme (parent)
chain: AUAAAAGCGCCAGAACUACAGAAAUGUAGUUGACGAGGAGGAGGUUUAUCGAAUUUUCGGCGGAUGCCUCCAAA

variants of: B1; assay: kcat; higher = faster cleavage; RNA array; conditions: with glucosamine-6-phosphate
Variants at the floor of the assay were thinned out.
Would you kindly list kcat for each of these variants?
Just the number please, in s⁻¹, no unit attached.

Specify kcat for G59A A64G and stop.
9.06e-05

Specify kcat for G13U A53G and stop.
0.0022

Specify kcat for C16G U55A and stop.
0.00566

Specify kcat for A12G A53U and stop.
0.00085

Specify kcat for C61U U69G and stop.
1.8e-05

Specify kcat for G41C C71U and stop.
0.000207

Specify kcat for A14C G66C and stop.
9.53e-05

Specify kcat for G29C U30G and stop.
0.00361

Specify kcat for C70A C71G and stop.
5.62e-05

Specify kcat for U31G A53U and stop.
0.019

Specify kcat for A39U A64U and stop.
4.75e-05

Specify kcat for U30A U65G and stop.
0.00214

Specify kcat for C34G U56G C70U and stop.
3.47e-05

Specify kcat for G13A U55C and stop.
0.000582

Specify kcat for C11A U54G and stop.
0.000149

Specify kcat for A15U A39C and stop.
0.00112

Specify kcat for A36G U69G and stop.
2.8e-05

Specify kcat for A6U A64G and stop.
0.000266

Specify kcat for U46A C71U and stop.
0.00396

Specify kcat for A42C U69C and stop.
0.000251

Specify kcat for A52U A53U and stop.
0.000212

Specify kcat for G41A A42C and stop.
4.51e-05

Specify kcat for C11A U45A and stop.
0.000361

Specify kcat for A12U G44U U47G and stop.
1.54e-05
